Values were extracted from patent US20260209362A1.

TARGET_OR_SYSTEM: T1, biotinylated recombinant human IL-12Rβ2 (human, UniProt Q99665 24-622, random biotinylated)
T1 construct: Recombinant protein produced in-house; also called hIL-12RB2; human IL-12RB2
T1 sequence: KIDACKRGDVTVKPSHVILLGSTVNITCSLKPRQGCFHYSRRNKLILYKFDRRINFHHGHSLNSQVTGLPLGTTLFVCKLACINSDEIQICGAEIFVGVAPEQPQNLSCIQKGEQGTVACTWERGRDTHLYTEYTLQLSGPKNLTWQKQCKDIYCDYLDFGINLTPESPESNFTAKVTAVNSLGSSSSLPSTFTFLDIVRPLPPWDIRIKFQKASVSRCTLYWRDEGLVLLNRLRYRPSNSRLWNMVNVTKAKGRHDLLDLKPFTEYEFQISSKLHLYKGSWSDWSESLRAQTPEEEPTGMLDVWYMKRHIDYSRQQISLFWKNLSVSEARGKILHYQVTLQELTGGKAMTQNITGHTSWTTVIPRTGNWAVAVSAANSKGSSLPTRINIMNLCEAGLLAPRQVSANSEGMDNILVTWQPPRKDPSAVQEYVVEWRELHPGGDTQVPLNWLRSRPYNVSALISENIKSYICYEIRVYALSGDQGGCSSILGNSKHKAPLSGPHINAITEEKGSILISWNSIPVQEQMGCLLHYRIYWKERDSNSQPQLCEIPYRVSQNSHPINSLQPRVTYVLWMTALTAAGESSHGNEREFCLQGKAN
RUN_DESCRIPTION: ELISA, P.E., biotinylated antigen
Examples of binders with documented ELISA hIL-12RB2/control follow.
Respond using a number only.

# BINDER, QUANTITY_MEASURED, READOUT_VALUE
records = [
    ("anti-IL-12Rβ2 VHH clone 3CRH14 (clone ID 20374) (VHH, not shown: small tags and cut ends, periplasmic extract) VHH: QVQLQESGGGLVQPGGSLRLSCAASGFTFSTSGMHWFRQAPGKGLEWVSSIGIIVDSSYYADSVKGRFTISRDNAKNTLFLQMNSLKSEDTAVYYCSKDPTGSSRGQGTQVTVSS", "ELISA hIL-12RB2/control", 5.51),
    ("anti-IL-12Rβ2 VHH clone 3CRHS67 (clone ID 20424) (VHH, not shown: small tags and cut ends, periplasmic extract) VHH: QVQLQESGGGLVQAGGSLTLSCVSSQTLVGIEAMGWYRQAPGKQRELVALITLNGGTFYADSVKGRFTISRDVAEHMLYLEMNSLNPEDTAVYFCVAGVESDNEEPTYWGQGTQVTVSS", "ELISA hIL-12RB2/control", 18.3),
    ("anti-IL-12Rβ2 VHH clone 3CAHS142 (clone ID 20401) (VHH, not shown: small tags and cut ends, periplasmic extract) VHH: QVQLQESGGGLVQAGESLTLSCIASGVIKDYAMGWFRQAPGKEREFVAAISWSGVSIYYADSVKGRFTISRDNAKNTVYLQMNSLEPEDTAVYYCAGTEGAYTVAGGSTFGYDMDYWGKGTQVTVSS", "ELISA hIL-12RB2/control", 4.98),
]

Here's the next entry for you.
# input I am curious: what ELISA hIL-12RB2/control value has been reported for anti-IL-12Rβ2 VHH clone 3CRHS1 (clone ID 20412) (VHH, not shown: small tags and cut ends, periplasmic extract) VHH: QVQLQESGGGSVQPGGSLRLSCAASGFTFSTSGMHWFRQAPGKGLEWVSSIGIIVDSSYYASSVKGRFTISRDNAKNTLYLQMNSLKSEDTAVYYCSKDPTGSSRGQGTQVTVSS ?
# output 6.74
